Values were extracted from PubChem BioAssay (NCATS).

System: DIV30
assay.name: qHTS profiling for inhibitors of Plasmodium falciparum proliferation (AID 504749); also: nearly all actives have a fitted effect of over 60% in size
reported.conditions: P. falciparum in erythrocytes, SYBR Green DNA, 72 h; series mostly up to 28.7 µM
Description: NIH National Institute of Allergy and Infectious Diseases [NIAID] NIH Chemical Genomics Center [NCGC] […] Because mature erythrocytes lack DNA, only Plasmodium-derived DNA is detected. NCGC Assay Protocol Summary: The SYBR Green viability assay was adapted from a method described previously (Plouffe et al., 2008). […] The following morning, fluorescence intensity at 485(14) nm excitation and 535(25) nm emission wavelengths was measured on an EnVision (Perkin Elmer) plate reader. […]
Results filed as inconclusive are left out. Calls of active or inactive are those of the source. Calls follow the shape of the dose curve; as a rule, active = well fitted inhibition curve with a large enough effect; inconclusive = small, poorly fitted or top-dose-only effect; inactive = flat fitted curve, though single readings scatter.
Please answer using one outcome listed in active, inactive

Reference set, count: 2
NC(=O)c1ncn([C@@H]2O[C@H](CO)[C@@H](O)[C@H]2O)c1O :: inactive
COCCOC(=O)C1=C(C)NC(C)=C(C(=O)OC(C)C)C1c1cccc([N+](=O)[O-])c1 (centres undefined) :: active

Recorded test outcome, item O=C(O)CCCCCCCC(=O)O inactive

Recorded test outcome, item Cc1cc(C)c(/C=C2\C(=O)Nc3ccccc32)[nH]1 inactive

Recorded test outcome, item O=C(O)CN(CCN(CC(=O)O)CC(=O)O)CCN(CC(=O)O)CC(=O)O inactive

----------
assay.name: qHTS of pediatric cancer cell lines to identify multiple opportunities for drug repurposing: Primary screen for BT-12 cells (AID 1347101); also: nearly all actives have a fitted effect of over 25% in size
reported.conditions: BT-12 viability, CellTiter-Glo luminescence, 48 h; series mostly up to 57.3 µM
Records with an inconclusive call do not appear. The source made the active and inactive calls. The call rests on the fitted dose curve; in most records, active means well fitted cell-killing curve with a large enough effect; inconclusive means small, poorly fitted or top-dose-only effect; inactive means flat fitted curve, though single readings scatter.
Please answer using one outcome listed in yes (active), no (inactive)

C[C@]12CCC(=O)C=C1CC[C@@H]1[C@@H]2C(=O)C[C@@]2(C)[C@H]1CC[C@]2(O)C(=O)CO :: no

Recorded test outcome, item Cc1cccc(C)c1NC(=O)C(C)N (stereo unspecified) no

Recorded test outcome, item O=C(O)CN(CCN(CC(=O)O)CC(=O)O)CCN(CC(=O)O)CC(=O)O no

Recorded test outcome, item CN(C)C(=O)Oc1ccc[n+](C)c1 no

Recorded test outcome, item CC1=NS(=O)(=O)c2cc(Cl)ccc2N1 no

Recorded test outcome, item COc1ccc([C@@H]2Sc3ccccc3N(CCN(C)C)C(=O)[C@@H]2OC(C)=O)cc1 no

Recorded test outcome, item Cc1ccc(/C(=C\CN2CCCC2)c2ccccn2)cc1 no

Recorded test outcome, item CC(C)(Oc1ccc(CCNC(=O)c2ccc(Cl)cc2)cc1)C(=O)O no

Recorded test outcome, item CCc1c(C)[nH]c2c1C(=O)C(CN1CCOCC1)CC2 (stereo unspecified) no

Recorded test outcome, item Brc1c(NC2=NCCN2)ccc2nccnc12 no

Recorded test outcome, item O=C1NCN(c2ccccc2)C12CCN(CCCC(c1ccc(F)cc1)c1ccc(F)cc1)CC2 yes

Recorded test outcome, item CCCN(CCC)C(=O)C(CCC(=O)O)NC(=O)c1ccccc1 (stereo unspecified) no

Recorded test outcome, item Nc1nc(N)c2nc(-c3ccccc3)c(N)nc2n1 yes

----------
assay.name: AP1 Signaling Pathway (AID 357);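 also: ME-180 reporter cells stimulated with EGF at its EC50 level; % is scaled to controls: 0 for no effect and ±100 for the full control effect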
reported.conditions: ME-180 (cervical carcinoma) AP-1-bla reporter, EGF-induced, beta-lactamase ratio, 5 h; at 38 µM (top of the series)
Results filed as inconclusive are left out.
Exercise: for every item that follows, state its recorded activity change, negative = inhibition.
Answers are plain numbers, in %.

Example entries begin here.
CC[N+](C)(C)c1cccc(O)c1 :: 2.69
CCN(CC)CC(=O)Nc1c(C)cccc1C :: 19.9

// for each molecule below, give its activity change, negative = inhibition
1. Cc1nc2ccccn2c(=O)c1CCN1CCC(C(=O)c2ccc(F)cc2)CC1
2. Cc1scc2c1N(C(=O)CN1CCN(C)CC1)c1ccccc1NC2=O
3. CN1CCN(CC(=O)N2c3ccccc3C(=O)Nc3cccnc32)CC1
4. O=C(CCCN1CCC(O)(c2cccc(C(F)(F)F)c2)CC1)c1ccc(F)cc1

1: 5.6; 2: 15.1; 3: 9.42; 4: 14.4

// for each molecule below, give its activity change, negative = inhibition
1. O=C(O)CN(CCOCCOCCN(CC(=O)O)CC(=O)O)CC(=O)O
2. CCNC(=O)N1CCN(CCCC(c2ccc(F)cc2)c2ccc(F)cc2)CC1
3. CCN(CC)CCNC(=O)c1ccc(NC(C)=O)cc1

[4.77, 1.34, 9.43]
